Entry source: patent US20100278834A1

# TARGET SYSTEM: H5 hemagglutinin (HA) of H5N1 influenza A virus, strain not stated (influenza A virus (H5N1), strain not stated)
# TEST NAME: cross-inhibition of binding to HA; competitor: FLD194
MEASURED PROPERTY: Inhibition of binding (%)
Give a bare numeral; the unit % is implied.

Some solved entries appear below for comparison.
BINDER: FLD20.19 (antibody, V domains shown) VH: QVQLVQSGAEVKKPGSSVTVSCKASGGTFSNYGISWVRQAPGQGLDWMGGIIPLFGTANYAQKFQGRVTITADESTSSSNMELSSLRSEDTAVYYCARDVHNYDFLTGYPLHLYGMDVWGQGTTVTVSS VL: DIQMTQSPSSLSASVGDRVTITCRASQSISTYLNWYQQKPGIPPKLLINVASSLQSGVPSRFSGSGSGTDFTLTISSLQPEDFASYYCQQTYSSPPTFGQGTKVEIK
Inhibition of binding (%): 0

BINDER: FLD129 (antibody, V domains shown) VH: EVQLVESGGGLVQPGRSLRLSCAASGFTFSDFWMSWVRQAPGKGLEWVANIDQDGNERFYADSVKGRFTISRDNAKNSLYLQMTSLRADDTAVYYCARDGREGYFYGSGSFYNLKGLNWGQGTLLTVSS VL: QSVLTQPPSVSAAPGQRVTISCSGTSSNIGKNYVSWYQQLPGAAPKLLIYDNDKRPSGIPDRFSGSKSGTSATLGITGLQTGDEADYYCGTWDSSLSVGMFGGGTRLTVL
Inhibition of binding (%): 100

Proceeding to the next binder to report its Inhibition of binding (%).
Please look at this binder and report its Inhibition of binding (%): FLD132 (antibody, V domains shown) VH: EVQLVQSGAELKMPGESLKISCKASGYTFTNYWIGWVRQTPGKGLEWMGIIFPPDSQTSYSPSFQGQVTFSVDNSISVAYIQWSSLKASDTAIYYCARSGIFDWSAPLVEAFDIWGQGTVVTVSS VL: DIQLTQSPSFLSASVGDGVTITCRASQDIYIYLAWYQQKPGKAPKLLIYAASTLQGGVPSRFSGSGSGTEFTLTINNLQPEDFATYFCQQLNGYPLTFGGGTKVEIK
52
